This collection of values is drawn from PubChem BioAssay.

assay: reversal of MRP1-mediated doxorubicin resistance, pilot screen, H69AR cells, doxorubicin co-treatment (AID 601); details: H69AR cells + 2 uM doxorubicin, CellTiter-Glo, 72 h; measured here: viability with 2 uM doxorubicin; at 10 µM; stronger effect = lower value
Peptide text beside a SMILES is read from it. * marks the point of attachment. Boc = CC(C)(C)OC(=O)*
Attribute: viability
Reported Endpoint: viability (%)

- COc1cccc(-c2cc(C(=O)Nc3cc(OC)c(OC)c(OC)c3)no2)c1: 88.6
- COCC(=O)Nc1sc2c(c1C(=O)OC)C(C(=O)OC)CC2 (stereo not given): 88.6
- CC1=C(C#N)C(c2ccoc2)C(C(=O)OCc2ccccc2)=C(N)S1 (stereo not given): 92.4
- COc1cccc(NC(=O)CSc2nnc(-c3cc(-c4ccccn4)nc4ccccc34)o2)c1: 79.7
- COc1ccccc1NC(=O)CSc1nnc(-c2ccncc2)n1CC1CCCO1 (stereo not given): 90.1
- O=C(CSc1nnnn1C1CCCCC1)N1CCc2ccccc21: 90.2
- Cc1ccccc1NC(=O)c1c(F)c(F)c(F)c(F)c1F: 86
- COCCN1C(=O)C(=O)/C(=C(/O)c2ccc(OC(C)C)cc2)C1c1cccnc1 (stereo not given): 87.4
- c1cncc(-c2nnc(-c3ccco3)o2)c1: 89
- CSCCC(C(=O)Nc1ccc2c(c1)OCO2)N1C(=O)c2ccccc2C1=O (stereo not given): 92
- COCCOC(=O)c1[nH]c2c(c1C)C(=O)CC(c1ccc(N(C)C)cc1)C2 (stereo not given): 104
- COCCn1nnnc1C(c1cc2cc(OC)ccc2[nH]c1=O)N1CCC(Cc2ccccc2)CC1 (stereo not given): 24.8
- COC(=O)c1ccccc1NC(=O)c1cc(-c2ccc(OC)c(OC)c2)on1: 72
- CCN(Cc1ccccc1)C(c1ccncc1)c1nnnn1C(C)(C)C (stereo not given): 79.1
- O=c1[nH]cnc2c1nc(SCc1ccccc1)n2C1OC(CO)C(O)C1O (stereo not given): 92.2
- COc1ccc2c(c1)C(=NO)c1cc(OC)ccc1-2: 90
- Cc1nc2ccccc2c2oc(C(=O)NCc3ccccn3)cc12: 94.6
- COCCNC(=O)C(c1ccncc1)N(C(=O)Cn1nnc2ccccc21)c1ccc(OC)cc1 (stereo not given): 95.1
- CCn1c(=O)c(C(=O)NCc2ccc(OC)cc2)c(O)c2ccccc21: 86.7
- CC1=C(C#N)C(=O)NC(C)(C)C1: 86.3
- Cc1ccc(C(=O)CCC2CCCC2=O)cc1 (stereo not given): 88.4
- COc1ccc(N2C(=O)CC(N3CCN(c4ccccc4F)CC3)C2=O)cc1 (stereo not given): 103
- c1cn2cc(CSC3CCCCC3)nc2s1: 86.4
- O=c1[nH]c(CN2CCN(Cc3ccccc3)CC2)nc2sc3c(c12)CCC3: 87.3
- CCOC(=O)Cn1c(S(=O)(=O)Cc2ccccc2)nc2ccccc21: 87.2
- O=C(CCn1c(=O)sc2ccccc21)Nc1cccnc1: 91
- O=C(OCc1nnc(-c2ccccc2)o1)c1ccc(S(=O)(=O)NCc2ccco2)cc1: 60.3
- Cc1ccc(C)c(N2CCN(S(=O)(=O)c3ccc4c(c3)OCCO4)CC2)c1: 101
- CC(C)c1cc(C(=O)NCc2ccco2)no1: 74.5
- CC1(C)Cc2cccc(OCC(=O)O)c2O1: 87.8
- CCOC(=O)N1CCC(NC(=O)CCN2C(=O)COc3ccccc32)CC1: 77.5
- Cc1cc(NC(=O)COC(=O)C2COc3ccccc3O2)no1 (stereo not given): 85.7
- CCc1[nH]nc2c1C(c1cccc(OC(=O)N3CCOCC3)c1)C(C#N)=C(N)O2 (stereo not given): 98.8
- Cc1cc(NC(=O)c2cnn3cccnc23)no1: 93.5
- COc1ccc(N2CCN(C(=O)COc3ccc4ccccc4c3)CC2)cc1: 90.8
- CC(NC(=O)OC(C)(C)C)C(=O)N1CCCC1C(=O)NC(Cc1ccccc1)C(N)=O (stereo not drawn) (Boc-Ala-Pro-Phe-NH2; configuration not given here): 97.1
- CCCCCn1c(N2CCN(Cc3ccccc3)CC2)nc2c1c(=O)[nH]c(=O)n2C: 53.2
- O=C(Cc1cccs1)Nc1ccccc1C(=O)O: 97.2
- Fc1ccc(C(c2nnnn2Cc2ccco2)N2CCN(C3CCCCC3)CC2)cc1 (stereo not given): 88.5
- O=S(=O)(c1ccc2ccccc2c1)N1CCCCC1: 75.1
- O=C(CCSc1nccn1Cc1ccccc1)N1CCOCC1: 86
- COc1ccccc1NC(=O)c1nnn(CC(=O)Nc2ccccc2)c1N: 97.6
- COc1ccccc1N1CCN(C(=O)C2CCCO2)CC1 (stereo not given): 97.8
- O=C1CC(N2CCN(c3ccc(Cl)c(Cl)c3)CC2)C(=O)N1 (stereo not given): 89.1
- COCCn1c(C)cc(C(=O)COC(=O)c2n[nH]c3ccccc23)c1C: 84.1

###

target: Receptor tyrosine-protein kinase erbB-2 (Homo sapiens) (UniProt P04626); experiment: reducers of endogenous Her2 protein level, primary screen, SKBR3 breast tumor cells, AlphaScreen, ATP viability (AID 461); conditions: 18-24 h, at 10 µM, stronger effect = lower value;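 note: lower value means less Her2 protein in the cells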
Sequence (P04626 whole entry, looked up): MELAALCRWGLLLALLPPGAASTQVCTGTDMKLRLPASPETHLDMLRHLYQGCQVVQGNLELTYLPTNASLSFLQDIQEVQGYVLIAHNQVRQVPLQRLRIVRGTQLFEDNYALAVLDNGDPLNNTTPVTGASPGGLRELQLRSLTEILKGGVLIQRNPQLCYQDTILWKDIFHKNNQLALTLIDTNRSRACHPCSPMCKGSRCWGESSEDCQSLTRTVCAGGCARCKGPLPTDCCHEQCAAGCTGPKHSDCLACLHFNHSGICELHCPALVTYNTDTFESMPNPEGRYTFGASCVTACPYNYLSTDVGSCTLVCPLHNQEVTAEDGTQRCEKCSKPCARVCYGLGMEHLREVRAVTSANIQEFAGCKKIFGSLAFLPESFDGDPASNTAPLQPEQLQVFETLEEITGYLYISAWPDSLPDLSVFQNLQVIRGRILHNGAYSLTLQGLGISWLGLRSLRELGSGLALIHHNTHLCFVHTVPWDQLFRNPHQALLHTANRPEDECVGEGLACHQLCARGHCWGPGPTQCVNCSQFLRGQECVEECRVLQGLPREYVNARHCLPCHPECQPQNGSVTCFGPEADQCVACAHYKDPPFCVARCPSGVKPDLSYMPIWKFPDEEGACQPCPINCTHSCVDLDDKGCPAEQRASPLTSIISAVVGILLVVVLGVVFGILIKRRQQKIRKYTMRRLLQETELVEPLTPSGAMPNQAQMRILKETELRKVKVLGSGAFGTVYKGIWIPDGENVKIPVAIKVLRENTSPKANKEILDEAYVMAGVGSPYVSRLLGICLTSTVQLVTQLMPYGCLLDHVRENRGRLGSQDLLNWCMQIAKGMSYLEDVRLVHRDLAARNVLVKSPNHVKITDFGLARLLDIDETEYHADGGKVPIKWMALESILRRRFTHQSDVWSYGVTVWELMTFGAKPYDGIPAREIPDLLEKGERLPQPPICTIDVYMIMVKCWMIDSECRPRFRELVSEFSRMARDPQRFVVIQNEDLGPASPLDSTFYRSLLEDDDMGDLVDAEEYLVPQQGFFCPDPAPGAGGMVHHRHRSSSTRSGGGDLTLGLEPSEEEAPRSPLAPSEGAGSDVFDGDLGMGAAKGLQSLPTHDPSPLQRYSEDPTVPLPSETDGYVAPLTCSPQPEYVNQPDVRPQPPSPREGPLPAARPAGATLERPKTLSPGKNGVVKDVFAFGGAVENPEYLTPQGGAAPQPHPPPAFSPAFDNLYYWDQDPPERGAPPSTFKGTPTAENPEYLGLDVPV
Reported Endpoint: Her2 level (%)

* Cc1cccc(N2C(=O)CC(Sc3nc(C)c4c(n3)CCCC4)C2=O)c1 (stereo unspecified) | 128
* Cc1cccc(-c2nnc(SCC#N)n2-c2cccc(Cl)c2)c1 | 83.5
* O=C(NCc1ccccn1)Nc1ccc2c(c1)OCO2 | 102
* O=c1[nH]c(CN2CCN(Cc3ccccc3)CC2)nc2sc3c(c12)CCC3 | 87.5
* CCOC(=O)Cn1c2c(c(=N)c3ccccc31)CCC2 | 98
* Cc1ccc(N2CCN(C(=O)c3ccccc3Br)CC2)c(C)c1 | 72
* O=C(O)CCCc1nc(-c2ccccc2)no1 | 87.5
* COc1ccccc1CN1C(=S)SC(C)(C)C1NO (stereo unspecified) | 93.5
* CC(C)(C)c1cc(C(=O)O)nn1-c1ccccc1 | 92
* CCOC(=O)Cc1nn2c(=O)cc(C)nc2s1 | 111
* c1cncc(-c2nnc(-c3ccco3)o2)c1 | 114
* Cc1nc2ccccn2c1/C(O)=C1\C(=O)C(=O)N(CCN2CCOCC2)C1c1cccs1 (stereo unspecified) | 90.5
* Cc1cc(C)nc(SCC(=O)Nc2ccc(S(=O)(=O)Nc3nccs3)cc2)n1 | 107
* O=C(NCCCNC1CCCCC1)c1ccc(/C=N/O)nc1 | 96
* COc1cccc(Oc2cnc(N)nc2-c2ccc(OC)cc2O)c1 | 74.5
* COCC(=O)N(Cc1ccc(OC)cc1)Cc1nc2ccccc2c(=O)[nH]1 | 108
* Cc1ccc(C(C)C)c(OCCn2c(=O)oc3ccccc32)c1 | 133
* CCC(C(=O)OCC(=O)Nc1c(C)n(C)n(-c2ccccc2)c1=O)c1ccccc1 (stereo unspecified) | 83
* CC(=O)Nc1ccc2c(c1)nc(CCNC(=O)c1ccccc1)n2C | 89
* C=CCc1cccc2cc(C(=O)NCc3cccnc3)c(=O)oc12 | 112
* CC1=C(C(=O)Nc2ccccc2)C(c2cccs2)C(C#N)=C(SCC#N)N1 (stereo unspecified) | 96.5
* CCC(C)c1ccc(NC(=O)c2cccnc2)cc1 (stereo unspecified) | 106
* Cn1c2ccccc2c2c(C(=O)NCCCN3CCCC3=O)cn(C3CCCCC3)c(=O)c21 | 88.5
* Cc1ccc2c(CNCc3ccco3)cc(=O)oc2c1 | 94.5
* O=C(NCc1ccco1)c1cnn2c(C(F)(F)F)cc(-c3ccco3)nc12 | 74.5
* Cc1c(C(=O)N2CCCC2)sc(NC(=O)c2cccs2)c1C#N | 91.5
* COc1ccc(Cl)cc1C(=O)n1nc(C)cc1C | 112
* CCOc1ccc(NC(=O)C2CC(=O)N(C(C)C)C2)cc1 (stereo unspecified) | 82
* O=C(COC(=O)CCc1c[nH]c2ccccc12)NC1CCS(=O)(=O)C1 (stereo unspecified) | 96
* COc1ccc(S(=O)(=O)NCC(c2cccnc2)N2CCN(c3ccc(F)cc3)CC2)cc1C (stereo unspecified) | 80
* O=C(O)c1[nH]c2ccc(Cl)cc2c1CC(=O)N1CCN(C(=O)c2ccco2)CC1 | 112
* Cc1ccc(OCC(=O)NCCN2CCCC2)cc1 | 84.5
* O=C1C2C3C=CC(C3)C2C(=O)N1Cc1ccccc1 (stereo unspecified) | 114
* O=C(NCc1ccccc1)C1CCN(S(=O)(=O)N2CCCCCC2)CC1 | 106
* COc1ccccc1CNC(=O)C1CCCN(S(=O)(=O)c2cnc[nH]2)C1 (stereo unspecified) | 102
* O=C(O)CC1=C(O)C(=O)N(c2ccccc2)C1c1ccccc1 (stereo unspecified) | 107
* Cc1cc(NC(=O)CSc2nc3ccsc3c(=O)n2NC(=O)c2ccccc2)no1 | 100
* CCc1c(C(=O)N2CCOCC2)csc1C | 154
* Cc1cc(NC(=O)Cn2cnc3c2c(=O)n(C)c(=O)n3C)n(-c2ccccc2)n1 | 93
* FC(F)(F)c1cccc(N2CCN(c3nnnn3-c3ccccc3)CC2)c1 | 88.5
* COc1ccc(CN(Cc2nc3ccccc3c(=O)[nH]2)C(=O)NC2CCCCC2)cc1 | 71
* COc1ccc(-n2ncc3c(NCc4ccccn4)ncnc32)cc1 | 97.5
* Cc1nc2cccc(C(=O)NC3CCCCC3)c2o1 | 101
* Nc1nc(N)nc(-c2ccccc2)n1 | 106
* COc1ccc(NC(=O)Nc2ccc(C)cc2OC(F)F)cc1OC | 79.5
* CC1Cc2ccccc2N1S(=O)(=O)c1cccc(C(=O)OCC(=O)NC2CCS(=O)(=O)C2)c1 (stereo unspecified) | 82.5
